pKi: −log10 of the molar value.
Plasmepsin II (Plasmodium falciparum) pKi, compiled from various sources.
pKi of 7 or higher: satisfied. Under 7: not satisfied.

SAMPLE_SMILES: CC(C)[C@H](NC(=O)c1ccccn1)C(=O)N[C@@H](COCc1ccc(Br)cc1)[C@@H](O)CC(=O)NCc1ccc(C#N)cc1
GROUP_LABEL: not satisfied
--
SAMPLE_SMILES: CCOC(=O)c1ccc(/N=C2\S/C(=C\c3ccc(C(C)(C)C)cc3)C(=O)N2c2ccc(C(=O)OCC)cc2)cc1
GROUP_LABEL: not satisfied
--
SAMPLE_SMILES: CC(C)[C@H](NC(=O)c1ccccn1)C(=O)N[C@@H](COCc1ccc(Br)cc1)[C@@H](O)CC(=O)NCc1ccccc1
GROUP_LABEL: satisfied
--
SAMPLE_SMILES: Cc1cccc(C)c1OCC(=O)N[C@@H](Cc1ccccc1)[C@H](O)C(=O)N1CSC(C)(C)[C@H]1C(=O)N[C@H]1c2ccccc2C[C@H]1O
GROUP_LABEL: satisfied
--
SAMPLE_SMILES: CCCCNC(=O)C[C@H](O)[C@H](CC(C)C)NC(=O)[C@@H](NC(=O)COc1ccc2ccccc2c1)[C@@H](C)CC
GROUP_LABEL: not satisfied
--
SAMPLE_SMILES: CC(C)(C)c1ccc(-c2nnc([C@H](OC/C=C/Br)[C@H](O)[C@@H](O)[C@@H](OC/C=C/Br)c3nnc(-c4ccc(C(C)(C)C)cc4)o3)o2)cc1
GROUP_LABEL: not satisfied

---

# Ki against Plasmepsin II (Plasmodium falciparum, UniProt P46925), merged from multiple literature sources
READOUT_LABEL: Ki

COMPOUND: O=C(Nc1cc(C(F)(F)F)cc(C(F)(F)F)c1)Nc1c(Oc2ccc(Cl)cc2)ccc(Cl)c1S(=O)(=O)O
REPORTED_MEASUREMENT: 0.05 to 0.68 µM
--
COMPOUND: Cc1nnc([C@H](OC/C=C/Br)[C@H](O)[C@@H](O)[C@@H](OC/C=C/Br)C(=O)N[C@H]2c3ccccc3C[C@H]2O)o1
REPORTED_MEASUREMENT: > 5 µM
--
COMPOUND: CC(C)[C@H](NC(=O)c1ccccn1)C(=O)N[C@@H](Cc1ccccc1)[C@@H](O)CN[C@@H](C)C(N)=O
REPORTED_MEASUREMENT: > 2 µM
--
COMPOUND: CC(C)(C)c1ccc(-c2nnc([C@H](OC/C=C/Br)[C@H](O)[C@@H](O)[C@@H](OC/C=C/Br)C(=O)N[C@H]3c4ccccc4C[C@H]3O)o2)cc1
REPORTED_MEASUREMENT: > 5 µM
--
COMPOUND: O=C(Nc1ccc(Cl)c(Cl)c1)Nc1cc(Cl)ccc1Oc1cc(Cl)c(Cl)cc1S(=O)(=O)O
REPORTED_MEASUREMENT: 0.05 to 0.68 µM
--
COMPOUND: CC(C)C[C@H](NC[C@H](O)[C@H](Cc1ccccc1)NC(=O)c1ccccn1)C(N)=O
REPORTED_MEASUREMENT: > 2 µM
--
COMPOUND: Cc1cccc(C)c1OCC(=O)NCC(O)(CCc1ccccc1)C(=O)N1CCC[C@H]1C(=O)N[C@H]1c2ccccc2C[C@H]1O (stereo in doubt; (B)-19)
REPORTED_MEASUREMENT: > 20 µM
--
COMPOUND: CCN(CCN)c1cc(C)c(OCC(=O)N[C@@H](Cc2ccccc2)[C@H](O)C(=O)N2CSC(C)(C)[C@H]2C(=O)N[C@H]2c3ccccc3C[C@H]2O)c(C)c1
REPORTED_MEASUREMENT: < 0.0001 µM
--
COMPOUND: CCCCNC(=O)CC(O)C(CC(C)C)NC(=O)C(CCC(N)=O)NC(=O)COc1ccc2ccccc2c1 (centres undefined)
REPORTED_MEASUREMENT: > 30 µM

---

Compiled notes: published log10 Ki values involving UniProt P46925.
READOUT_LABEL: log10 Ki (log10 of the value in nM)

COMPOUND: CCCCNC(=O)CC(O)C(CC(C)C)NC(=O)C(NC(=O)Cc1ccc2ccccc2c1)C(C)CC (configuration not stated)
REPORTED_MEASUREMENT: 1.95
//
COMPOUND: CC(C)C[C@H](NC(=O)[C@H](C)NC(=O)C[C@H](O)[C@H](COCc1ccc(Br)cc1)NC(=O)c1ccc(Cl)c(Cl)c1)C(N)=O
REPORTED_MEASUREMENT: 1.96
//
COMPOUND: CCCCNC(=O)CC(O)C(CC(C)C)NC(=O)C(NC(=O)Cc1cc(OC)ccc1C)C(C)CC (configuration not stated)
REPORTED_MEASUREMENT: 2.34
//
COMPOUND: C=CCO[C@@H](C(=O)N[C@H]1c2ccccc2C[C@H]1O)[C@H](O)[C@@H](O)[C@@H](OCC=C)C(=O)N[C@H]1c2ccccc2C[C@H]1O
REPORTED_MEASUREMENT: 1.98
//
COMPOUND: CC(C)C[C@H](NC(=O)[C@H](C)NC(=O)C[C@H](O)[C@H](COCc1ccc(Br)cc1)NC(=O)[C@@H]1Cc2ccccc2N1)C(N)=O
REPORTED_MEASUREMENT: 2.16
//
COMPOUND: CC(=O)c1ccc(/C=C/CO[C@@H](C(=O)N[C@H]2c3ccccc3C[C@H]2O)[C@H](O)[C@@H](O)[C@@H](OC/C=C/c2ccc(C(C)=O)cc2)C(=O)N[C@H]2c3ccccc3C[C@H]2O)cc1
REPORTED_MEASUREMENT: 0.78
//
COMPOUND: CC(C)[C@H](NC(=O)c1ccccn1)C(=O)N[C@@H](Cc1ccccc1)[C@@H](O)CN[C@@H](Cc1cccc(-c2cccc(N)c2)c1)C(N)=O
REPORTED_MEASUREMENT: 2.11
//
COMPOUND: CC(C)[C@H](NC(=O)c1ccccn1)C(=O)N[C@@H](COCc1ccc(Br)cc1)[C@@H](O)CC(=O)NC1CCCCC1
REPORTED_MEASUREMENT: 1.40
//
COMPOUND: CC(C)[C@H](NC(=O)c1ccccn1)C(=O)N[C@@H](COCc1ccc(Br)cc1)[C@@H](O)CC(=O)NCCNc1ccccc1
REPORTED_MEASUREMENT: 1.87
//
COMPOUND: COc1cccc(CCNC(=O)C[C@H](O)[C@H](COCc2ccc(-c3ccccc3)cc2)NC(=O)c2c(F)cc(F)cc2F)c1
REPORTED_MEASUREMENT: 2.49
//
COMPOUND: O=C(CCCc1ccccc1)NNC(=O)[C@H](OC/C=C/Br)[C@H](O)[C@@H](O)[C@@H](OC/C=C/Br)C(=O)N[C@H]1c2ccccc2C[C@H]1O
REPORTED_MEASUREMENT: 1.00
//
COMPOUND: O=C(N[C@H]1c2ccccc2C[C@H]1O)[C@H](OC/C=C/Br)[C@H](O)[C@@H](O)[C@@H](OC/C=C/Br)c1nnc(Cc2ccccc2)o1
REPORTED_MEASUREMENT: 3.32
//
COMPOUND: CC(C)C[C@H](NC(=O)[C@H](C)NC(=O)C[C@H](O)[C@H](COCc1cccc(-c2ccsc2)c1)NC(=O)[C@@H](NC(=O)c1ccccn1)C(C)C)C(N)=O
REPORTED_MEASUREMENT: 0.28
//
COMPOUND: CC(C)(C)c1ccc(C(=O)NNC(=O)[C@H](OC/C=C/Br)[C@H](O)[C@@H](O)[C@@H](OC/C=C/Br)C(=O)NNC(=O)c2ccc(C(C)(C)C)cc2)cc1
REPORTED_MEASUREMENT: 3.18
//
COMPOUND: CCCCNC(=O)CC(O)C(CC(C)C)NC(=O)C(NC(=O)Cc1cc(OC)ccc1C)c1ccccc1 (configuration not stated)
REPORTED_MEASUREMENT: 2.77
//
COMPOUND: COc1cccc(CCNC(=O)C[C@H](O)[C@H](COCc2ccc(-c3ccsc3)cc2)NC(=O)c2c(F)cc(F)cc2F)c1
REPORTED_MEASUREMENT: 2.84
//
COMPOUND: O=C(N[C@H]1c2ccccc2C[C@H]1O)[C@H](OC/C=C/c1ccsc1)[C@H](O)[C@@H](O)[C@@H](OC/C=C/c1ccsc1)C(=O)N[C@H]1c2ccccc2C[C@H]1O
REPORTED_MEASUREMENT: 1.18

---

// note: pKi values for Plasmepsin II (Plasmodium falciparum, UniProt P46925) were reported in different studies
pKi: −log10 of the molar value.

SAMPLE_SMILES: CC(C)[C@H](NC(=O)c1ccccn1)C(=O)N[C@@H](Cc1ccccc1)[C@@H](O)CN[C@@H](Cc1ccc(-c2ccccc2)cc1)C(N)=O
TESTED_ON: Plasmepsin II (Plasmodium falciparum, UniProt P46925)
VALUE_COMPARATOR: =
pKi: 6.93
--
SAMPLE_SMILES: O=C(N[C@H]1c2ccccc2C[C@H]1O)[C@H](OC/C=C/Br)[C@H](O)[C@@H](O)[C@@H](OC/C=C/Br)C(=O)N[C@H]1c2ccccc2C[C@H]1O
TESTED_ON: Plasmepsin II (Plasmodium falciparum, UniProt P46925)
VALUE_COMPARATOR: =
pKi: 7.33
--
SAMPLE_SMILES: Cc1nnc([C@H](OC/C=C/Br)[C@H](O)[C@@H](O)[C@@H](OC/C=C/Br)c2nnc(C)o2)o1
TESTED_ON: Plasmepsin II (Plasmodium falciparum, UniProt P46925)
VALUE_COMPARATOR: <
pKi: 5.30
--
SAMPLE_SMILES: CC(C)C[C@H](NC(=O)[C@H](C)NC(=O)C[C@H](O)[C@H](COCc1cccc(Br)c1)NC(=O)[C@@H](NC(=O)c1ccccn1)C(C)C)C(N)=O
TESTED_ON: Plasmepsin II (Plasmodium falciparum, UniProt P46925)
VALUE_COMPARATOR: =
pKi: 8.24
--
SAMPLE_SMILES: O=C(N[C@H]1c2ccccc2C[C@H]1O)[C@H](OC/C=C/C#Cc1ccccc1)[C@H](O)[C@@H](O)[C@@H](OC/C=C/C#Cc1ccccc1)C(=O)N[C@H]1c2ccccc2C[C@H]1O
TESTED_ON: Plasmepsin II (Plasmodium falciparum, UniProt P46925)
VALUE_COMPARATOR: =
pKi: 7.39
--
SAMPLE_SMILES: CNCCNc1cc(C)c(OCC(=O)N[C@@H](Cc2ccccc2)[C@H](O)C(=O)N2CSC(C)(C)[C@H]2C(=O)N[C@H]2c3ccccc3C[C@H]2O)c(C)c1
TESTED_ON: Plasmepsin II (Plasmodium falciparum, UniProt P46925)
VALUE_COMPARATOR: =
pKi: 8.04
--
SAMPLE_SMILES: O=C(N[C@H]1c2ccccc2C[C@H]1O)[C@H](OCc1ccccc1)[C@H](O)[C@@H](O)[C@@H](OCc1ccccc1)C(=O)N[C@H]1c2ccccc2C[C@H]1O
TESTED_ON: Plasmepsin II (Plasmodium falciparum, UniProt P46925)
VALUE_COMPARATOR: =
pKi: 7.07
